Test system: K24384-001-R-PDC complex spheroids, viability;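 further: spheroids exposed to compounds for seven days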
Assay: Anticancer human tumor K24384-001-R-PDC patient-derived pancreatic adenocarcinoma cell line growth inhibition [GQUAD]
Details: second compound 0.1 µM; first compound 0.316 µM; stronger effect = lower value
Measured viability, T/C, listed per entry for reference.
measurement-label: viability, T/C (%)

compound="Cc1cccc(N(C)C(=O)C2C(O)CCN2c2nc(C)cc(C(F)(F)F)c2C#N)c1 (centres undefined) + CN(C)c1ccc(Nc2c3ccc(NC(=O)CCN4CCCC4)cc3nc3cc(NC(=O)CCN4CCCC4)ccc23)cc1" measurement_label="viability, T/C" observed_value=106
compound="CC[C@@]1(O)C(=O)OCc2c1cc1n(c2=O)Cc2cc3c(CN(C)C)c(O)ccc3nc2-1 + Cc1cnc(CNC(=O)c2c(=O)c3ccc(N4CCCN(C)CC4)nc3n3c2sc2ccccc23)cn1" measurement_label="viability, T/C" observed_value=47.1
compound="C#Cc1c(F)ccc2cc(O)cc(-c3ncc4c(N5CC6CCC(C5)N6)nc(OCC56CCCN5CC(F)C6)nc4c3F)c12 (centres undefined) + Cc1[nH]c2ccc(F)cc2c1-c1nc2c3cccnc3c3ncccc3c2[nH]1" measurement_label="viability, T/C" observed_value=85.1
compound="CC(=O)O[C@H]1C(=O)[C@@]2(C)[C@H]([C@H](OC(=O)c3ccccc3)[C@]3(O)C[C@H](OC(=O)[C@H](O)[C@@H](NC(=O)c4ccccc4)c4ccccc4)C(C)=C1C3(C)C)[C@]1(OC(C)=O)CO[C@@H]1C[C@@H]2O + Cc1cnc(CNC(=O)c2c(=O)c3ccc(N4CCCN(C)CC4)nc3n3c2sc2ccccc23)cn1" measurement_label="viability, T/C" observed_value=30.4

# credit: PubChem BioAssay AID2060483
